# target.or.system: human alpha-synuclein monomer (human, UniProt P37840 1-140)
# method: SPR (Biacore 8K), IgG captured on anti-human Fc, aSyn monomer injected;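 further: aSyn injected as a dilution series, signal corrected against a reference cell holding an irrelevant IgG, Kd from one-to-one Langmuir kinetic fitting of kon and koff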
Answer each item with its documented Kd.
Numbers only, in nM.

For orientation, consider the following solved cases.
Lab note: HC2_L1_2 (antibody, V domains shown) VH: EVQLVESGGGLVQPGGSLRLSCAASGFTFSNAAMYWVRQAPGKGLELVSRIRTKPNNYATYHADSVKGRFTISRDNSKNTLYLQMNSLRAEDTAVYYCTADMATGDYWGQGTLVTVSS VL: DIQMTQSPSSLSASVGDRVTITCKASQIINQILDWYQQKPGKAPKPLIYSTNNLQTGVPSRFSGSGSGTDFTLTISSLQPEDFATYYCYQYKSAWTFGQGTKVEIK gave Kd of 2.45

Lab note: H3_1_LC2 (antibody, V domains shown) VH: EVQLVESGGGLVQPGGSLRLSCAASGFTFSNAAMYWVRQAPGKGLELVSRIRTKPNNYATYHADSVKGRFTISRDNSKNTLYLQMNSLRAEDTAVYYCTANMATGDYWGQGTLVTVSS VL: DIQMTQSPSSLSASVGDRVTITCKASQNINKNLDWYQQKPGKAPKPLIYSTNNLQTGVPSRFSGSGSGTDFTLTISSLQPEDFATYYCYQYKSAWTFGQGTKVEIK gave Kd of 4.79

Next:
Lab note: H3_2_LC2 (antibody, V domains shown) VH: EVQLVESGGGLVQPGGSLRLSCAASGFTFSNAAMYWVRQAPGKGLELVSRIRTKPNNYATYHADSVKGRFTISRDNSKNTLYLQMNSLRAEDTAVYYCTANMAKGDYWGQGTLVTVSS VL: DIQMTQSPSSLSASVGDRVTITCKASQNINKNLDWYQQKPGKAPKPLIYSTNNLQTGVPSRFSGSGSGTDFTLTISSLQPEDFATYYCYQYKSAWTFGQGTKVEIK gave Kd of 4.92
